Origin of the recorded values: patent US6403816B1

Lung L132 (ED50): recorded values
Test system: L132
Assay: Tumor cell cytotoxicity assay, lung
Assay type: cell-based
Details: concentration causing 50% cytotoxicity

CC(C)C1CCC2(C(=O)O)CCC3(C)C(CCC4C5(C)CCC(OC(=O)c6ccc(F)cc6F)C(C)(C)C5CCC43C)C12 (stereo not drawn) [MJ937-RS] | 1.1 µg/mL

Response field Lung L132 (ED50) (L132) for item C=C(C)C1CCC2(C(=O)O)CCC3(C)C(CCC4C5(C)CCC(OC(=O)c6ccc(CCCCCCC)cc6)C(C)(C)C5CCC43C)C12 (stereo not drawn) [MJ1138-RS] : 7 µg/mL

Response field Lung L132 (ED50) (L132) for item COC(=O)CCOC(=O)C12CCC(C(C)(Br)CBr)C1C1CCC3C4(C)CC(Br)C(=O)C(C)(C)C4CCC3(C)C1(C)CC2 (stereo not drawn) [MJ548-RS] : >10 µg/mL

###

Test system: HT-29
Assay: Tumor cell cytotoxicity assay, colon
Assay type: cell-based
Conditions: concentration causing 50% cytotoxicity
Colon HT-29 (ED50): recorded values

Reference set (4 entries):
COC(=O)CCOC(=O)C12CCC(C(C)(Br)CBr)C1C1CCC3C4(C)CC(Br)C(=O)C(C)(C)C4CCC3(C)C1(C)CC2 (centres unmarked) | >10 µg/mL
CC(C)C1CCC2(C(=O)O)CCC3(C)C(CCC4C5(C)CCC(NNc6ccccc6)C(C)(C)C5CCC43C)C12 (centres unmarked) | 1.75 µg/mL
C=C(C)C1CCC2(C(=O)O)CCC3(C)C(CCC4C5(C)CCC(OC(=O)c6ccc(CCCCCCC)cc6)C(C)(C)C5CCC43C)C12 (centres unmarked) | >10 µg/mL
C=C(C)C1CCC2(C(=O)O)CCC3(C)C(CCC4C5(C)CCC(=NNc6ccccc6)C(C)(C)C5CCC43C)C12 (centres unmarked) | >10 µg/mL

Please look at the following molecule next.
The recorded Colon HT-29 (ED50) for entry C=C(C)C1CCC2(C(=O)O)CCC3(C)C(CCC4C5(C)CCC(OC(=O)Cc6cc(OC)ccc6OC)C(C)(C)C5CCC43C)C12 (centres unmarked) equals >10 µg/mL

###

% reduction in total tube area: recorded values
System: ECV304
Test: Tube-like-structure (TLS) formation of ECV304 cells on Matrigel
Format: cell-based, human
Conditions: 2 μg/ml; 24-48 hours
Number only, in %; omit the unit.

CC(C)C1CCC2(C(=O)O)CCC3(C)C(CCC4C5(C)CCC(OC(=O)c6ccc(F)cc6F)C(C)(C)C5CCC43C)C12 (stereo not shown) [MJ937-RS] | 21
CC(C)C1CCC2(C(=O)O)CCC3(C)C(CCC4C5(C)CCC(N=Cc6ccc(F)c(F)c6)C(C)(C)C5CCC43C)C12 (stereo not shown) [MJ998-RS] | 13.4
CC(C)C1CCC2(C(=O)O)CCC3(C)C(CCC4C5(C)CCC(N=Cc6ccc(F)cc6F)C(C)(C)C5CCC43C)C12 (stereo not shown) [MJ1065-RS] | 16.7

The recorded % reduction in total tube area for entry CC(C)C1CCC2(C(=O)O)CCC3(C)C(CCC4C5(C)CCC(=NOCc6ccc([N+](=O)[O-])cc6)C(C)(C)C5CCC43C)C12 (stereo not shown) [MJ1098-RS] equals 7.5

###

Test system: L132
Assay: Tumor cell cytotoxicity assay, lung
Assay type: cell-based
Details: concentration causing 50% cytotoxicity
experimental_endpoint: Lung L132 (ED50) (µg/mL)
Number only, in µg/mL; omit the unit.

Reference set (2 entries):
C=C(C)C1CCC2(C(=O)O)CCC3(C)C(CCC4C5(C)CCC(OC(=O)Cc6cc(OC)ccc6OC)C(C)(C)C5CCC43C)C12 (stereo not drawn) | 4.6
C=CC(=O)OC(=O)C12CCC(C(=C)C)C1C1CCC3C4(C)CCC(O)C(C)(C)C4CCC3(C)C1(C)CC2 (stereo not drawn) | 1.7

The recorded Lung L132 (ED50) for entry CC(C)C1CCC2(C(=O)O)CCC3(C)C(CCC4C5(C)CCC(=NOCc6ccc([N+](=O)[O-])cc6)C(C)(C)C5CCC43C)C12 (stereo not drawn) equals 1.3

The recorded Lung L132 (ED50) for entry C=C(C)C1CCC2(C(=O)O)CCC3(C)C(CCC4C5(C)CCC(OC(=O)c6cccc(C(F)(F)F)c6)C(C)(C)C5CCC43C)C12 (stereo not drawn) equals 2.7

The recorded Lung L132 (ED50) for entry CC(C)C1CCC2(C(=O)O)CCC3(C)C(CCC4C5(C)CCC(OC(=O)c6cc(F)cc(F)c6)C(C)(C)C5CCC43C)C12 (stereo not drawn) equals 1.2

The recorded Lung L132 (ED50) for entry C=C(C)C1CCC2(C(=O)O)CCC3(C)C(CCC4C5(C)CCC(=NNc6ccccc6)C(C)(C)C5CCC43C)C12 (stereo not drawn) equals 4.5

###

Test system: DU145
Assay: Tumor cell cytotoxicity assay, prostate
Type: cell-based
Conditions: concentration causing 50% cytotoxicity
Description: The cytotoxicity assays for tumor cells have been described in detail in our application Ser. No. 09/040,856 filed in U.S. on Mar. 18, 1998.
experimental_endpoint: Prostate DU145 (ED50)

CC(C)C1CCC2(C(=O)O)CCC3(C)C(CCC4C5(C)CCC(OC(=O)c6cc(F)cc(F)c6)C(C)(C)C5CCC43C)C12 (stereo not shown) | 3.2 µg/mL
CC(C)C1CCC2(C(=O)O)CCC3(C)C(CCC4C5(C)CCC(N=Cc6ccc(F)cc6F)C(C)(C)C5CCC43C)C12 (stereo not shown) | 2.5 µg/mL

The recorded Prostate DU145 (ED50) for entry CC(C)C1CCC2(C(=O)O)CCC3(C)C(CCC4C5(C)CCC(OC(=O)c6ccc(F)cc6F)C(C)(C)C5CCC43C)C12 (stereo not shown) equals 2.5 µg/mL

The recorded Prostate DU145 (ED50) for entry C=C(C)C1CCC2(C(=O)O)CCC3(C)C(CCC4C5(C)CCC(OC(=O)c6ccc(CCCCCCC)cc6)C(C)(C)C5CCC43C)C12 (stereo not shown) equals >10 µg/mL

The recorded Prostate DU145 (ED50) for entry CC(C)C1CCC2(C(=O)O)CCC3(C)C(CCC4C5(C)CCC(NNc6ccccc6)C(C)(C)C5CCC43C)C12 (stereo not shown) equals 9.9 µg/mL

The recorded Prostate DU145 (ED50) for entry CC(C)C1CCC2(C(=O)O)CCC3(C)C(CCC4C5(C)CCC(N=Cc6ccc(F)c(F)c6)C(C)(C)C5CCC43C)C12 (stereo not shown) equals 2.2 µg/mL

The recorded Prostate DU145 (ED50) for entry C=C(C)C1CCC2(C(=O)O)CCC3(C)C(CCC4C5(C)CCC(=NNc6ccccc6)C(C)(C)C5CCC43C)C12 (stereo not shown) equals 6.5 µg/mL

The recorded Prostate DU145 (ED50) for entry C=C(C)C1CCC2(C(=O)O)CCC3(C)C(CCC4C5(C)CCC(OC(=O)c6cccc(C(F)(F)F)c6)C(C)(C)C5CCC43C)C12 (stereo not shown) equals >10 µg/mL

The recorded Prostate DU145 (ED50) for entry CC(C)C1CCC2(C(=O)O)CCC3(C)C(CCC4C5(C)CCC(OC(=O)c6ccccc6C(F)(F)F)C(C)(C)C5CCC43C)C12 (stereo not shown) equals >4 µg/mL

The recorded Prostate DU145 (ED50) for entry C=CC(=O)OC(=O)C12CCC(C(C)C)C1C1CCC3C4(C)CCC(O)C(C)(C)C4CCC3(C)C1(C)CC2 (stereo not shown) equals >4 µg/mL

The recorded Prostate DU145 (ED50) for entry COc1ccc(NNC2CCC3(C)C(CCC4(C)C3CCC3C5C(C(C)C)CCC5(C(=O)O)CCC34C)C2(C)C)cc1 (stereo not shown) equals 8.5 µg/mL

The recorded Prostate DU145 (ED50) for entry C=CC(=O)OC(=O)C12CCC(C(=C)C)C1C1CCC3C4(C)CCC(O)C(C)(C)C4CCC3(C)C1(C)CC2 (stereo not shown) equals >10 µg/mL

The recorded Prostate DU145 (ED50) for entry CC(C)C1CCC2(C(=O)O)CCC3(C)C(CCC4C5(C)CCC(=NOCc6ccc([N+](=O)[O-])cc6)C(C)(C)C5CCC43C)C12 (stereo not shown) equals 1.5 µg/mL

The recorded Prostate DU145 (ED50) for entry COC(=O)CCOC(=O)C12CCC(C(C)(Br)CBr)C1C1CCC3C4(C)CC(Br)C(=O)C(C)(C)C4CCC3(C)C1(C)CC2 (stereo not shown) equals >10 µg/mL

The recorded Prostate DU145 (ED50) for entry C=C(C)C1CCC2(C(=O)O)CCC3(C)C(CCC4C5(C)CCC(OC(=O)Cc6cc(OC)ccc6OC)C(C)(C)C5CCC43C)C12 (stereo not shown) equals 1 µg/mL

The recorded Prostate DU145 (ED50) for entry C=C(C)C1CCC2(C(=O)O)CCC3(C)C(CCC4C5(C)CCC(OC(=O)c6ccc(CCCCC)cc6)C(C)(C)C5CCC43C)C12 (stereo not shown) equals 2 µg/mL
